The reported measurements were obtained from patent US10137138B1.

Recorded % change in BG, 7 day, one value per entry.
Test system: alloxan-induced diabetic mouse model
test_protocol: Sub-acute evaluation of in vivo oral hypoglycemic activity (21 days dosing, 7 days rest)
measurement_context: diabetic mice, oral 200 μg/kg body weight daily, day 7; mean ± SEM, n=6

# molecule, % change in BG, 7 day (%)
rows = [
    ("COc1ccc(Cl)cc1C(=O)NCCc1ccc(S(=O)(=O)NC(=O)NC2CCCCC2)cc1 [Glibenclamide, glibenclamide]", "−16.23"),
    ("CC1CCC(NC(=O)NS(=O)(=O)c2ccc(CCNC(=O)C34CCC(C)(C)CC3C3=CCC5C6(C)CCC(=O)C(C)(C)C6CCC5(C)C3(C)CC4)cc2)CC1 (stereo not shown)", "−80.80"),
    ("CC1(C)CC[C@]2(C(=O)O)CC[C@]3(C)C(=CC[C@@H]4[C@@]5(C)CC[C@H](O)C(C)(C)[C@@H]5CC[C@]43C)[C@@H]2C1", "−10.56"),
    ("CC1(C)CC[C@]2(C(=O)NCCc3ccc(S(=O)(=O)NC(=O)NC4CCCCC4)cc3)CC[C@]3(C)C(=CC[C@@H]4[C@@]5(C)CCC(=O)C(C)(C)[C@@H]5CC[C@]43C)[C@@H]2C1", "−76.87"),
]
